# Test system: VchCAST RNA-guided transposition machinery (E. coli BL21(DE3) host, lacZ target)
# Experiment notes: relative integration efficiency (T-RL orientation) vs wild-type transposon end (log2 (normalized fold change)); transposon end mutated: right end (5 bp flank + 75 bp right end); higher = more efficient transposition
Output 1.0 for relative integration efficiency (log2) not less than -2; output 0.0 otherwise.

Worked set:
>  <Sequence text>
ACATTTGTTGATACAACCATTAAATGATAATTCCACCCAAAAATTGATAATTATCACACCCAATTTAACTATAACGCTCTGATCATAGTCAGACCAACATTGCTACGACCCGTATTCGCACCGACAC

>  <Discrete label>
1.0

$$$$
>  <Sequence text>
ACATTTGTCGATACAACCCTAAAATGATAATTACACCCATAAATTGATAATTATCACCCCCAATTTAACTATAACGCTCTGATCATAGTCAGACCAACATTGCTACGACCCGTATTCGCACCGACAC

>  <Discrete label>
0.0

$$$$
>  <Sequence text>
ACATTTGTTGATACAACCATAAAATGATAATTACACCCATAAATTGATAAAATACACACCCATAAATTGATATTGCCTCTGATCATAGTCAGACCAACATTGCTACGACCCGTATTCGCACCGACAC

>  <Discrete label>
1.0

$$$$

Problem: Does the reported relative integration efficiency (log2) for ACATTTGTTGATACAACCATCCCCTGATAATTACACCCATCCCGTGATAATTATCACACCCATCCCGTGATATTGCCTCTGATCATAGTCAGACCAACATTGCTACGACCCGTATTCGCACCGACAC fall at or above the -2 mark?
Result: 0.0

Problem: Determine whether measured relative integration efficiency (log2) meets or exceeds -2 for ACATTTGTGGATACAACCATAAAATGATAATTCACCCATAAATTGATAATTATCACACCCCAATTTAACTATAACGCTCTGATCATAGTCAGACCAACATTGCTACGACCCGTATTCGCACCGACAC
Result: 1.0

====

Quick list: relative integration efficiency (log2) per entry.
# System: VchCAST RNA-guided transposition machinery (E. coli BL21(DE3) host, lacZ target)
# Experiment notes: relative integration efficiency (T-RL orientation) vs wild-type transposon end (log2 (normalized fold change)); transposon end mutated: right end (5 bp flank + 75 bp right end); higher = more efficient transposition
A bare number is all that is needed in reply.

// worked examples, relative integration efficiency (log2) included
>  <Sequence text>
ACATTTCTCGATACAACCATAAAATGATAATTACACCCATAAATTCATCATTATCACACCCAATTTAACTATAACGCTCTGATCATAGTCAGACCAACATTGCTACGACCCGTATTCGCACCGACAC

>  <Target desc>
VchCAST RNA-guided transposition machinery (E. coli BL21(DE3) host, lacZ target)

>  <relative integration efficiency (log2)>
-3.05

$$$$
>  <Sequence text>
ACATTTGTTGATACAACCATAAAATGATAATTACAACCATATATTGATATCTCTCACACCCATAAATTGATATTGCCTCTGATCATAGTCAGACCAACATTGCTACGACCCGTATTCGCACCGACAC

>  <Target desc>
VchCAST RNA-guided transposition machinery (E. coli BL21(DE3) host, lacZ target)

>  <relative integration efficiency (log2)>
-0.424

$$$$
>  <Sequence text>
ACATTTGTTGATACAACCATAAAATGATAATTACACCCATAAATTGATAATTATCACACAACGCCCGGTCGCGGTAAGAGGATCATAGTCAGACCAACATTGCTACGACCCGTATTCGCACCGACAC

>  <Target desc>
VchCAST RNA-guided transposition machinery (E. coli BL21(DE3) host, lacZ target)

>  <relative integration efficiency (log2)>
-0.696

$$$$
>  <Sequence text>
ACATTTGTTGATACAACCATAAAATGATAATTACACCCATAAATTGATTTAAATCACACCCATAAATTGATATTGCCTCTGATCATAGTCAGACCAACATTGCTACGACCCGTATTCGCACCGACAC

>  <Target desc>
VchCAST RNA-guided transposition machinery (E. coli BL21(DE3) host, lacZ target)

>  <relative integration efficiency (log2)>
-0.801

$$$$
>  <Sequence text>
ACATTTGTTGATACAACCATAAAATGATAATTACACCCATAAATTGATAATTATCACACCCATAAATTGATATTGCCTCTTCATGCAGATTTGAACAGTAAGTTTACGACATTTTCAGCACCGACAC

>  <Target desc>
VchCAST RNA-guided transposition machinery (E. coli BL21(DE3) host, lacZ target)

>  <relative integration efficiency (log2)>
-0.604

$$$$

Now consider the entry below.
According to the records, this sequence ACATTTGTTTATACAACCATAAAATGATAATTACACCCATAAATGGATAATTATCACACCCAATTTAACTATAACGCTCTGATCATAGTCAGACCAACATTGCTACGACCCGTATTCGCACCGACAC displays relative integration efficiency (log2) of -1.86

====

// reported relative integration efficiency (log2) per item
# Test system: VchCAST RNA-guided transposition machinery (E. coli BL21(DE3) host, lacZ target)
# Experiment notes: relative integration efficiency (T-RL orientation) vs wild-type transposon end (log2 (normalized fold change)); transposon end mutated: left end; higher = more efficient transposition
Just the number, please.

>  <Sequence text>
AATGTTGTTGATGCAACCATAAAGTGATATTTAATAATTATTTATAATCAGCAACTTACAACACCCCACCAACGCGCGGTCGCGAGACACCCCACCAACGCCTGGTCGCGGGGGTGTCCGATCTGATTTCAGCAAAACTACTGCAGTAAGAA

>  <relative integration efficiency (log2)>
-5.66

$$$$
>  <Sequence text>
AATGTTGTTGATGCAACCATAAAGTGATATTTAATAATTATTTATAATCAGCAACTTAACCACAAAAACCAACGCGCGGTCGCGAGAACAAAACAACCATAAGTTGATATTTTTGTGAATCGAGTATTTCAGCAAAACTACTGCAGTAAGAA

>  <relative integration efficiency (log2)>
-3.6

$$$$
>  <Sequence text>
AATGTTGTTGATGCAACCATAAAGTGATATTTAATAATTATTTATAATCAGCAACTTACAACCATATATTGATATCTCACCACAAAAACAAAACAACCATAAGTTGATATTTTTGTGAATCGAGTATTTCAGCAAAACTACTGCAGTAAGAA

>  <relative integration efficiency (log2)>
-0.417

$$$$
>  <Sequence text>
AATGTTGTTGATGCAACCATAAAGTGATATTTAATAACTTCGTATAGGATACTTTATACGAAGTTATCAACCATATATTGATATCTCACAAAACAACCATAAGTTGATATTTTTGTGAATCGAGTATTTCAGCAAAACTACTGCAGTAAGAA

>  <relative integration efficiency (log2)>
-3.72

$$$$
>  <Sequence text>
AATGTTGTTGATGCACCCATAAATTGATAATTAATAATTATTTATAATCAGCAACTTAACCACAAAACAACCATAAAGTGATATTTAACAAAAGTTGGTATTCAACTATAAAATGTGAATCGAGTATTTCAGCAAAACTACTGCAGTAAGAA

>  <relative integration efficiency (log2)>
-2.92

$$$$

Measured on VchCAST RNA-guided transposition machinery (E. coli BL21(DE3) host, lacZ target), TTTTGTGTTGAAACAACCATAAAGTGATATTTACGAATCAATTAAAATCATAGGCTTAATCGAAAAACAACCATATCTTGATATCGCATAAAACAACCATAAGTTGATATTTTGGTGAAAAGGATATTCCAACCTTCATAGTTTAGTAAGAA has a documented relative integration efficiency (log2) of 0.179

I looked up AATGTTGTTGATGCAACCATAAAGTGATATTTAATAATTATTTATACAACCATATATTGATATCTCATCAGCAACTTAACCACAAAAACAAAACAACCATAAGTTGATATTTTTGTGAATCGAGTATTTCAGCAAAACTACTGCAGTAAGAA and its relative integration efficiency (log2) for VchCAST RNA-guided transposition machinery (E. coli BL21(DE3) host, lacZ target) was -4.35

Given the sequence AATGTTGTTGATGCAACCATAAAGTGATATTTAATAATTATTTATAATCATTGTGAGCGGATAACAACAACCATATATTGATATCTCACAAAACAACCATAAGTTGATATTTTTGTGAATCGAGTATTTCAGCAAAACTACTGCAGTAAGAA and test system VchCAST RNA-guided transposition machinery (E. coli BL21(DE3) host, lacZ target), the measured relative integration efficiency (log2) is -3.2

The value of relative integration efficiency (log2) recorded for AATGTTGTTGATGCAACCATAAAGTGATATTTATTGACGGCTAGCTCAGTCCTAGGTATAGTGCTAGCAACCATATATTGATATCTCACAAAACAACCATAAGTTGATATTTTTGTGAATCGAGTATTTCAGCAAAACTACTGCAGTAAGAA when tested on VchCAST RNA-guided transposition machinery (E. coli BL21(DE3) host, lacZ target) reads -6.66

# lookup: AATGTTGTTGATGCAACCATAAAGTGATATTTAACAACCATATATTGATATCTCTAATTATTTATAATCAGCAACTTAACCACAAAAACAAAACAACCATAAGTTGATATTTTTGTGAATCGAGTATTTCAGCAAAACTACTGCAGTAAGAA on VchCAST RNA-guided transposition machinery (E. coli BL21(DE3) host, lacZ target), relative integration efficiency (log2) = -2.13

Item AATGTTGTTGATGCAACCATAAAGTGATATTTAATAATTATTTATAATCAGCAACTTAACCACAAAACAACCATATATTGATATCTCACAAAACAACCATAAGTTGATATTGGGTGTCCGATCTGATTTCAGCAAAACTACTGCAGTAAGAA was tested on VchCAST RNA-guided transposition machinery (E. coli BL21(DE3) host, lacZ target); the reported relative integration efficiency (log2) is -0.13

Item AATGTTGTTGATGCAACCATAAAGTGATATTTAATAATTATTTCGAACTAGTTAACTAGTACGCAAACAACCATATATTGATATCTCACAAAACAACCATAAGTTGATATTTTTGTGAATCGAGTATTTCAGCAAAACTACTGCAGTAAGAA ; assay system VchCAST RNA-guided transposition machinery (E. coli BL21(DE3) host, lacZ target); relative integration efficiency (log2) reported as -4.69

Lab entry: VchCAST RNA-guided transposition machinery (E. coli BL21(DE3) host, lacZ target) assay, sequence AATGTTGTTGATGCAACCATAAAGTGATATTTAATAATTATTTATAATCAGCAACTTAACCACAAAACAACCATAAGTTGATATTTTACAAAAGTTGGTATTCAACTATAAAATGTGAATCGAGTATTTCAGCAAAACTACTGCAGTAAGAA , relative integration efficiency (log2) = -2.49

The recorded relative integration efficiency (log2) with VchCAST RNA-guided transposition machinery (E. coli BL21(DE3) host, lacZ target) for AATGTTGTTGATGCAACCATAAAGTGATATTTAATAATTATTTATAATCAGCAACTTAACCACAAAACAACCATCGCGGTCGCGAGACACCCCACCAACGCCTGGTCGCGGGGGTGTCCGATCTGATTTCAGCAAAACTACTGCAGTAAGAA was -7.35

The recorded relative integration efficiency (log2) with VchCAST RNA-guided transposition machinery (E. coli BL21(DE3) host, lacZ target) for AATGTTGTTGATGCAACCATAAAGTGATATTTAATAATTATTTATAATCAGCAACTTAACCACAAAACAACCATATATTGATATCTCACAAAACAACCATAAGTTGATATTGTGAATCGAGTATTTCAGCAAAACTACTGCAGTAAGAAAGT was -0.306

relative integration efficiency (log2) on VchCAST RNA-guided transposition machinery (E. coli BL21(DE3) host, lacZ target) for AATGTTGTTGATGCAACCATAAAGTGATATTTAATAATTATTTATAATCAGCAACTTAACCACAAAACACCCATAAATTGATAATTAACAAAAGTTGGTATTCAACTATAAAATGTGAATCGAGTATTTCAGCAAAACTACTGCAGTAAGAA is -2.72

Data credit: the supplement of paper PMC10201428
